The reported measurements were obtained from patent US20250361230A1.

Target: LATS2 (Homo sapiens, UniProt Q9NRM7)
Sequence (Q9NRM7 1-1088): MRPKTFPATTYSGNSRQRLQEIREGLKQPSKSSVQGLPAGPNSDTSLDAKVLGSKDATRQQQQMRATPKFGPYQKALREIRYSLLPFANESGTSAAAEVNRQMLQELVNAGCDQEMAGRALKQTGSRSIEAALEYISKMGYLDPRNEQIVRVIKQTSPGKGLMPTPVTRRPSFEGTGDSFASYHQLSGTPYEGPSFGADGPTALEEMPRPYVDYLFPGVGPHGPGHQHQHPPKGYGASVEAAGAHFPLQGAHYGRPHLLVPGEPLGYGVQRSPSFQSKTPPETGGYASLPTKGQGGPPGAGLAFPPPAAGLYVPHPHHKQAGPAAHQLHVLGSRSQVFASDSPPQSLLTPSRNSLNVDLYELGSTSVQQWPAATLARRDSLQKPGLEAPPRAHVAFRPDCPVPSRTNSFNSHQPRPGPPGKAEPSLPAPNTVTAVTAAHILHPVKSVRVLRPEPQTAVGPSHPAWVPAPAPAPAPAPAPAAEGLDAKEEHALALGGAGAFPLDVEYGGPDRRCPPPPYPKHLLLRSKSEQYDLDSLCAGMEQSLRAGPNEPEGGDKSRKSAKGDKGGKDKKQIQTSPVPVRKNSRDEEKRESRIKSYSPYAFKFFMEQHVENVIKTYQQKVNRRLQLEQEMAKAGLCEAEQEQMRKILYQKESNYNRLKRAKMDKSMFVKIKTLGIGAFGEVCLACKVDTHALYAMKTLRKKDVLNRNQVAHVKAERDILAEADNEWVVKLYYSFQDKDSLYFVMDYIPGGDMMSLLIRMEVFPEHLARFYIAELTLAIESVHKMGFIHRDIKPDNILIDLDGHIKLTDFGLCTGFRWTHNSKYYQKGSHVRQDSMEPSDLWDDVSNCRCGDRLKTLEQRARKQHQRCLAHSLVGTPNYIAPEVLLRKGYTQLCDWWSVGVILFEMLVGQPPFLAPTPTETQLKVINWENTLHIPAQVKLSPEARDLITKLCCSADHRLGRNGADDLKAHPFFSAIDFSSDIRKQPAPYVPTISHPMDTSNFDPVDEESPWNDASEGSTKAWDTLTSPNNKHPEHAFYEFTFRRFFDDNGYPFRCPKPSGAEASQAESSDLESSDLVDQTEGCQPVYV
Assay: RBC HotSpot kinase assay (33P-ATP, P81 filter-binding), LATS2
Format: biochemical
Settings: Table 28, biochemical kinase assay; read-out: LATS2 IC50
Listed molecules paired with reported IC50
recorded metric: IC50 (nM)

>>> measured_value("Cc1cc(-c2ccnc3[nH]cc(F)c23)ncc1C1(O)[C@H](C)CN(C2CCS(=O)(=O)CC2)C[C@@H]1C (some centres unmarked)")
4250
>>> measured_value("CC(C)(N)c1ccc(-c2ccnc3[nH]cc(F)c23)cc1")
1.2
>>> measured_value("COc1ccccc1-c1c[nH]c2nccc(-c3ccc(CN)cc3)c12")
10
>>> measured_value("OC1(c2ccc(-c3ccnc4[nH]cc(F)c34)cc2Cl)CNC1")
14
>>> measured_value("COC(=O)c1c[nH]c2nccc(-c3ccc(CN)c(Cl)c3)c12")
19
>>> measured_value("C=C(C)c1c[nH]c2nccc(-c3ccc(CN)cc3)c12")
6
>>> measured_value("Cc1cc(-c2ccnc3[nH]ccc23)cc(F)c1[C@@]1(O)[C@H](C)CN(C2CCS(=O)(=O)CC2)C[C@@H]1C")
8.4
>>> measured_value("O=C1NCc2cc(-c3ccnc4[nH]ccc34)ccc21")
65
